# Test system: Candida parapsilosis
# procedure text: Antifungal activity against Candida parapsilosis ATCC 22019 […] after 72 hrs by modified NCCLS M38-A method
# Type: functional
# conditions used: Lodderomyces parapsilosis, ATCC 22019, 72 h
Recorded MIC for the following molecules

molecule	experimental target	MIC (mg/L)
C[C@@H]1[C@H](O)[C@@H](C)/C=C/C=C/C=C/C=C/C=C/C=C/C=C/[C@H](O[C@@H]2O[C@H](C)[C@@H](O)[C@H](N)[C@@H]2O)C[C@@H]2O[C@](O)(C[C@@H](O)C[C@@H](O)[C@H](O)CC[C@@H](O)C[C@@H](O)CC(=O)O[C@H]1C)C[C@H](O)[C@H]2C(=O)O	Candida parapsilosis	0.5
Nc1nc(=O)[nH]cc1F	Candida parapsilosis	0.5
CCC(C)n1ncn(-c2ccc(N3CCN(c4ccc(OCC5COC(Cn6cncn6)(c6ccc(Cl)cc6Cl)O5)cc4)CC3)cc2)c1=O (stereo not given)	Candida parapsilosis	0.5
OC(Cn1cncn1)(Cn1cncn1)c1ccc(F)cc1F	Candida parapsilosis	1
C[C@@H](c1ncncc1F)[C@](O)(Cn1cncn1)c1ccc(F)cc1F	Candida parapsilosis	0.03

----------
# Test system: Sporothrix schenckii
# procedure text: Antifungal activity against Sporothrix schenckii P30915 isolate from cutaneous-lymphatic sporotrichosis patient after 72 hrs by Sensititre YeastOne method
# Format: functional

compound	modifier sign	MIC, µg/mL
C[C@@H]1[C@H](O)[C@@H](C)/C=C/C=C/C=C/C=C/C=C/C=C/C=C/[C@H](O[C@@H]2O[C@H](C)[C@@H](O)[C@H](N)[C@@H]2O)C[C@@H]2O[C@](O)(C[C@@H](O)C[C@@H](O)[C@H](O)CC[C@@H](O)C[C@@H](O)CC(=O)O[C@H]1C)C[C@H](O)[C@H]2C(=O)O [AMPHOTERICIN B]	=	0.5
CCC(C)n1ncn(-c2ccc(N3CCN(c4ccc(OCC5COC(Cn6cncn6)(c6ccc(Cl)cc6Cl)O5)cc4)CC3)cc2)c1=O (stereo unspecified) [ITRACONAZOLE]	=	0.5
C[C@@H](c1ncncc1F)[C@](O)(Cn1cncn1)c1ccc(F)cc1F [VORICONAZOLE]	=	4
Nc1nc(=O)[nH]cc1F [FLUCYTOSINE]	=	16
OC(Cn1cncn1)(Cn1cncn1)c1ccc(F)cc1F [FLUCONAZOLE]	>	256
CC(=O)N1CCN(c2ccc(OCC3COC(Cn4ccnc4)(c4ccc(Cl)cc4Cl)O3)cc2)CC1 (stereo unspecified) [KETOCONAZOLE]	=	0.5

----------
# Tested on: Sporothrix schenckii
# procedure text: Antifungal activity against Sporothrix schenckii P10012 isolate from cutaneous-lymphatic sporotrichosis patient after 72 hrs by modified NCCLS M38-A method
# Assay type: functional
// reported MIC for each item listed

molecule	experimental target	modifier sign	MIC, µg/mL
OC(Cn1cncn1)(Cn1cncn1)c1ccc(F)cc1F	Sporothrix schenckii	>	64
C[C@@H](c1ncncc1F)[C@](O)(Cn1cncn1)c1ccc(F)cc1F	Sporothrix schenckii	=	16
C[C@@H]1[C@H](O)[C@@H](C)/C=C/C=C/C=C/C=C/C=C/C=C/C=C/[C@H](O[C@@H]2O[C@H](C)[C@@H](O)[C@H](N)[C@@H]2O)C[C@@H]2O[C@](O)(C[C@@H](O)C[C@@H](O)[C@H](O)CC[C@@H](O)C[C@@H](O)CC(=O)O[C@H]1C)C[C@H](O)[C@H]2C(=O)O	Sporothrix schenckii	=	0.06
CCC(C)n1ncn(-c2ccc(N3CCN(c4ccc(OCC5COC(Cn6cncn6)(c6ccc(Cl)cc6Cl)O5)cc4)CC3)cc2)c1=O (centres undefined)	Sporothrix schenckii	=	0.5
